Biological target: T1, cynomolgus (Macaca fascicularis) ST2L extracellular domain with C-terminal His6 tag (Macaca fascicularis (cynomolgus), UniProt Q01638 19-321 (human entry))
T1 construct: also called cyno ST2L-ECD; cynoST2L-ECD
T1 chain: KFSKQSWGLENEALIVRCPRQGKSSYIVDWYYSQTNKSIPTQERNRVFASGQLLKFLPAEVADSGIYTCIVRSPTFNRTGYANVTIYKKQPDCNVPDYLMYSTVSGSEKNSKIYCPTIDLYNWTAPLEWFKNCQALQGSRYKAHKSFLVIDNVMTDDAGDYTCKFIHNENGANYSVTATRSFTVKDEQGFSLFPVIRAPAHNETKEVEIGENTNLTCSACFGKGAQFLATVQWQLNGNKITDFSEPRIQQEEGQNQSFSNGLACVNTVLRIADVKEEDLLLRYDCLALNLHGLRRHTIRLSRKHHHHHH
Test: ProteOn SPR, mAb captured, ST2L-ECD in solution
EXPERIMENTAL_ENDPOINT: kon (M⁻¹ s⁻¹)
Quick reminder: number only, in M⁻¹ s⁻¹, skip the unit.

Form field kon, entry STLM202 (antibody, V domains shown, C2494 HFA mAb: VH STLH194 + VL STLL275 (L5)) VH: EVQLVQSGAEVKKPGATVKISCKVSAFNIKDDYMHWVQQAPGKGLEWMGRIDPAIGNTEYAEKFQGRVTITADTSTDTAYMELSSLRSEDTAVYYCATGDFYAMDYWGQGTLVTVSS VL: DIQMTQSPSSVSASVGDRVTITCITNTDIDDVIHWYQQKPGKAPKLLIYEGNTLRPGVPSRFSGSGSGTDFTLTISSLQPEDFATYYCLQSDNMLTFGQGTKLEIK : 7.75e+07

Form field kon, entry STLM204 (antibody, V domains shown, C2494 HFA mAb: VH STLH194 + VL STLL273 (A20)) VH: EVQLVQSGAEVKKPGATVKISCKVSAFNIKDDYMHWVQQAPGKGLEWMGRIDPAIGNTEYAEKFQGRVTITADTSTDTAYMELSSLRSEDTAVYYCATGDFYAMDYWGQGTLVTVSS VL: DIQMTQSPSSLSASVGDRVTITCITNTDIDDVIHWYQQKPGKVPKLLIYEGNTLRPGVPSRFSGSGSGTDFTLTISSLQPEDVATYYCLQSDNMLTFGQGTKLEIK : 1e+08

Form field kon, entry STLM62 (antibody, human IgG2, V domains shown, Mouse hybridoma C2494 cloned into human IgG2 background (STLM62); also called C2494) VH: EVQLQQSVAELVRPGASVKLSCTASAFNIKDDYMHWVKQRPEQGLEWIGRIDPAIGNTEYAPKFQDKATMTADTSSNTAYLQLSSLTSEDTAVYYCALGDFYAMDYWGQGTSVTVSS VL: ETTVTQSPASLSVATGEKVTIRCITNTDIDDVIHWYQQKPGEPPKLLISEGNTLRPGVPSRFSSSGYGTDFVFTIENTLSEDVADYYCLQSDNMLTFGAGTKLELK : 3.84e+07

Every entry's value here was drawn from patent US20170066831A1.
